Kindly find below pKi information for Muscarinic acetylcholine receptor M1 (Homo sapiens, UniProt P11229) taken from the literature.
pKi: −log10 of the molar value.
measuredProperty: pKi

1 = CCN(CCCCC1CCN(CC(=O)N2c3ccccc3C(=O)N(C(=O)c3ccc(F)cc3)c3ccccc32)CC1)C(=O)c1ccc(F)cc1
2 = CN1CCC=C(c2nsnc2OCCCCCCCCCOc2nsnc2C2=CCCN(C)C2)C1
3 = O=C(NCC1CCN(CC2CCCC2)CC1)[C@H]1CCCN1C(=O)[C@@H]1C[C@@H](O)CN1C(=O)CC(c1ccc(F)cc1)(c1ccc(F)cc1)c1ccc(F)cc1
4 = CC1CCc2ccccc2N1CC(=O)N1CCCCC1 (centres undefined)
5 = CCN(CC)CCOCNC(=O)C1(c2ccc(Cl)c(Cl)c2)CCCCC1
Parameters: sort_by = pKi; order = desc; input = items above. The labels, placed in the requested order, form the answer.
2, 3, 1, 5, 4

P = CC(C1=C(CCN(C)C)Cc2ccccc21)c1ccccc1 (centres undefined)
Q = O=C(NCC1CCNCC1)[C@H]1CCCN1C(=O)[C@@H]1C[C@@H](O)CN1C(=O)CC(c1ccc(Cl)cc1)(c1ccc(Cl)cc1)c1ccc(Cl)cc1
Compare the recorded pKi of P and Q ; state which is larger. Reply briefly: the label of your chosen item.
Q
(Q: 7.03, P: 6.80)

P = C=C(c1ccc(S(=O)(=O)c2ccc(OC)cc2)cc1)C1CCN(C2CCN(C(=O)C(C)C)CC2)CC1
Q = CCCCN1CCN(CCCN2C(=O)CCc3ccccc32)CC1
Smaller pKi value? Options are P and Q Please identify the chosen entry by its label.
Q
(Q: 5.57, P: 6.93)
